Source of measurements: ChEMBL document CHEMBL5360522

Known pIC50 of a selection of compounds
assayProcedure: Inhibition of N-terminal His-6 tagged VIM-2 (27 to 266 residues) (unknown origin) expressed in Escherichia coli Transetta (DE3) using FC5 as fluorescence substrate preincubated for 10 mins followed by substrate addition by microplate reader analysis
Parameters: species or system Bacteria
pIC50: −log10 of the molar value.

smilesRecord: Cc1c(C(=O)O)ncn1Cc1ccccc1
pIC50: < 4.00

smilesRecord: O=C(O)c1ncn(Cc2ccccc2)n1
pIC50: < 4.00

smilesRecord: O=C(O)c1nc2ccccc2n1Cc1ccccc1
pIC50: < 3.52

smilesRecord: O=C(O)c1nncn1Cc1ccccc1
pIC50: < 4.00

smilesRecord: O=C(O)c1ncnn1Cc1ccccc1
pIC50: < 4.00
